These data points were gathered from ChEMBL document CHEMBL1126896.

Below, each entry is listed alongside its reported Selectivity index.
System: MT4
Assay: Selectivity index for CC50 (cytotoxic concentration based on reduction of viability of mock-infected MT-4 cells) to that of EC50 against HIV-2
Assay type: functional

Compound	Result
CC(=O)OC/C(=C\C(=O)[O-])OC1OC(COS(=O)(=O)[O-])C(OC2OC(C(=O)[O-])C(OC3OC(COS(=O)(=O)[O-])C(OC4OC(C(=O)[O-])C(OC5OC(CS(=O)(=O)[O-])C(O)C(OC(C)=O)C5NS(=O)(=O)[O-])C(OC(C)=O)C4OS(=O)(=O)[O-])C(OC(C)=O)C3NS(=O)(=O)[O-])C(OC(C)=O)C2OS(=O)(=O)[O-])C(OC(C)=O)C1NS(=O)(=O)[O-].[Na+].[Na+].[Na+].[Na+].[Na+].[Na+].[Na+].[Na+].[Na+].[Na+].[Na+] (stereo not drawn)	>847

Query block: Please report the recorded Selectivity index for CCCCCC(=O)OC/C(=C\C(=O)[O-])OC1OC(COS(=O)(=O)[O-])C(OC2OC(C(=O)[O-])C(OC3OC(COS(=O)(=O)[O-])C(OC4OC(C(=O)[O-])C(OC5OC(CS(=O)(=O)[O-])C(O)C(OC(=O)CCCCC)C5NS(=O)(=O)[O-])C(OC(=O)CCCCC)C4OS(=O)(=O)[O-])C(OC(=O)CCCCC)C3NS(=O)(=O)[O-])C(OC(=O)CCCCC)C2OS(=O)(=O)[O-])C(OC(=O)CCCCC)C1NS(=O)(=O)[O-].[Na+].[Na+].[Na+].[Na+].[Na+].[Na+].[Na+].[Na+].[Na+].[Na+].[Na+] (stereo in doubt; 3h) .
Result block: >1250

Query block: Please report the recorded Selectivity index for CCCCOC(=O)/C=C(\COC(=O)CCC)OC1OC(COS(=O)(=O)[O-])C(OC2OC(C(=O)OCCCC)C(OC3OC(COS(=O)(=O)[O-])C(OC4OC(C(=O)OCCCC)C(OC5OC(COS(=O)(=O)[O-])C(O)C(OC(=O)CCC)C5NS(=O)(=O)[O-])C(OC(=O)CCC)C4OS(=O)(=O)[O-])C(OC(=O)CCC)C3NS(=O)(=O)[O-])C(OC(=O)CCC)C2OS(=O)(=O)[O-])C(OC(=O)CCC)C1NS(=O)(=O)[O-].[Na+].[Na+].[Na+].[Na+].[Na+].[Na+].[Na+].[Na+] (stereo not drawn) .
Result block: >1850
